Kindly state hGIPR cAMP EC50 ratio for each of the entries shown.
Molecular target: T1, human gastric inhibitory peptide receptor (GIPR) (human, UniProt P48546 22-466); note: reference of the scale not given here
T1 sequence (looked up): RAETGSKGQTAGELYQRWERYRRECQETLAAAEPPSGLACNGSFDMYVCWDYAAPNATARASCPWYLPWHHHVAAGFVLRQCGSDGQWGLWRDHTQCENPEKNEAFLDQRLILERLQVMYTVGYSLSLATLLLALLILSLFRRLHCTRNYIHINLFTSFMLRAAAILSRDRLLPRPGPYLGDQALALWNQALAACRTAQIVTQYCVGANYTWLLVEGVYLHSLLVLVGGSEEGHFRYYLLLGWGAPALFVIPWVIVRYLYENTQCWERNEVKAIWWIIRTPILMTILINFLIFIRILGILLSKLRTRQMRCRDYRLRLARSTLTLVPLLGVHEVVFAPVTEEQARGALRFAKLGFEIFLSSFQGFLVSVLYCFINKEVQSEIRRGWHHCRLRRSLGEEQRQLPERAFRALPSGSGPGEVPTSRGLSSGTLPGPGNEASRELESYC
Test: cell-based or functional assay
One number for each entry, in ratio.

The examples below pair each entry with its known result.
{"binder": "XXEGTFTSDYSIXLDKKAQXEFIEXLIEGGPSSGAPPPS (D-Tyr1; Aib2; αMeL13; K17 conjugated to (2-[2-(2-Amino-ethoxy)-ethoxy]-acetyl)2-(γ-Glu)-CO-(CH2)18-CO2H; Aib20; αMeY25; C-terminal amide) [Example 379]", "displayUnit": "ratio", "hGIPR cAMP EC50 ratio": 0.672}
{"binder": "XXEGTFTSDYSIXLDXKAQXAFIEXLIAGGPSSGAPPPS (D-Tyr1; Aib2; αMeL13; Orn16; K17 conjugated to (2-[2-(2-Amino-ethoxy)-ethoxy]-acetyl)2-(γ-Glu)-CO-(CH2)16-CO2H; Aib20; αMeY25; C-terminal amide) [Example 377]", "displayUnit": "ratio", "hGIPR cAMP EC50 ratio": 0.976}
{"binder": "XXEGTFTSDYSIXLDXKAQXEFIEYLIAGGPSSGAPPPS (D-Tyr1; Aib2; αMeL13; Orn16; K17 conjugated to (2-[2-(2-Amino-ethoxy)-ethoxy]-acetyl)2-(γ-Glu)-CO-(CH2)16-CO2H; Aib20; C-terminal amide) [Example 368]", "displayUnit": "ratio", "hGIPR cAMP EC50 ratio": 0.109}

Hello, I would appreciate it if you could give hGIPR cAMP EC50 ratio for each entry below.
1. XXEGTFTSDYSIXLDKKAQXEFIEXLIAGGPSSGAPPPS (D-Tyr1; Aib2; αMeL13; K17 conjugated to (2-[2-(2-Amino-ethoxy)-ethoxy]-acetyl)2-(γ-Glu)-CO-(CH2)16-CO2H; Aib20; αMeY25; C-terminal amide) [Example 374]
2. YXEGTFTSDYSIXLDKKAQXEFIEXLIAGGPSSGAPPPS (Aib2; αMeL13; K17 conjugated to (2-[2-(2-Amino-ethoxy)-ethoxy]-acetyl)2-(γ-Glu)-CO-(CH2)18-CO2H; Aib20; αMeY25; C-terminal amide) [Example 367]
3. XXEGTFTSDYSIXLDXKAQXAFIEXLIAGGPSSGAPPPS (D-Tyr1; Aib2; αMeL13; Orn16; K17 conjugated to (2-[2-(2-Amino-ethoxy)-ethoxy]-acetyl)2-(γ-Glu)-CO-(CH2)18-CO2H; Aib20; αMeY25; C-terminal amide) [Example 366]
4. XXEGTFTSDYSIXLDXKAQXEFIEYLIAGGPSSG (D-Tyr1; Aib2; αMeL13; Orn16; K17 conjugated to (2-[2-(2-Amino-ethoxy)-ethoxy]-acetyl)2-(γ-Glu)-CO-(CH2)18-CO2H; Aib20; C-terminal amide) [Example 370]
5. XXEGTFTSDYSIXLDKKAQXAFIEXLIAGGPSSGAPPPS (D-Tyr1; Aib2; αMeL13; K17 conjugated to (2-[2-(2-Amino-ethoxy)-ethoxy]-acetyl)2-(γ-Glu)-CO-(CH2)16-CO2H; Aib20; αMeY25; C-terminal amide) [Example 376]
6. XXEGTFTSDYSIXLDXKAQXAFVXYLIAGGPSSGAPPPS (D-Tyr1; Aib2; αMeL13; Orn16; K17 conjugated to (2-[2-(2-Amino-ethoxy)-ethoxy]-acetyl)2-(γ-Glu)-CO-(CH2)18-CO2H; Aib20; D-Glu24; C-terminal amide) [Example 362]

Output:
1.76
5.85
0.598
0.704
0.734
0.347

The values you see were collected from patent US20220048967A1.
